Biological target: NAD-dependent protein deacetylase sirtuin-1 (Homo sapiens, UniProt Q96EB6)
Sequence (Q96EB6 whole entry): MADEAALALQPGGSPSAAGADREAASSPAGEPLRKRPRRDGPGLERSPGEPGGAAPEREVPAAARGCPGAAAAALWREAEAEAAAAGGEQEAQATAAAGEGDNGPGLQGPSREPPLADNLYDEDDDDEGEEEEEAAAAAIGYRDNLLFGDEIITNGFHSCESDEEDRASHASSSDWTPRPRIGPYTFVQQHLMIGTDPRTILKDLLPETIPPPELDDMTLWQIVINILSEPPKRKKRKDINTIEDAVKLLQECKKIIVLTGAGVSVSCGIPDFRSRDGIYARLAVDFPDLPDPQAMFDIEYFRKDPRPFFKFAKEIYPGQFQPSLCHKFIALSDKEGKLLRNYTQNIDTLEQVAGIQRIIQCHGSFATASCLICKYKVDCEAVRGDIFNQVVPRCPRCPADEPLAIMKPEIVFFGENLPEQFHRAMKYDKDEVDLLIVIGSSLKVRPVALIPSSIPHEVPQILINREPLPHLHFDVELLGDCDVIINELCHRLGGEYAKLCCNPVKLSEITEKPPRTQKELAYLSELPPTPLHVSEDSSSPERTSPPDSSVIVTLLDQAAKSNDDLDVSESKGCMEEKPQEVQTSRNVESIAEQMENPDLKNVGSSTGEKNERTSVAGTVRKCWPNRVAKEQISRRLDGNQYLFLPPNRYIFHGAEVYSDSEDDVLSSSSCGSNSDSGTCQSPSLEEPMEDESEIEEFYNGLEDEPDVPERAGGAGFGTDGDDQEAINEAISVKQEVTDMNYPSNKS
pIC50: −log10 of the molar value.
QUANTITY KIND: pIC50

Can you look up the measured pIC50 of O=C(NCc1cccnc1)c1ccc2c(c1)C1C3CCC(C3)C1C(c1ccccc1)N2 (stereo unspecified) [AEM2] for me? < 4.00
